Provide the recorded IC50 for the entries that follow.
# protocol.summary: in vitro
# test.settings: human, Toxicity IC50 (nM) ± SD, HDF, healthy cell line HDF, SRB assay, 72 h exposure
One number for each entry, in nM.

COc1cc2c(c(OC)c1OC)-c1ccc(OCc3ccccc3)c(=O)cc1[C@@H](NC(C)=O)CC2 : 4.12
COc1cc2c(c(OC)c1OC)-c1ccc(=O)c(OCc3ccc(/C=C/c4ccc(CNC5=C6C[C@@H](C)C[C@H](OC)[C@H](O)[C@@H](C)/C=C(\C)[C@H](OC(N)=O)[C@@H](OC)/C=C\C=C(/C)C(=O)NC(=CC5=O)C6=O)cc4)cc3)cc1[C@@H](NC(C)=O)CC2 : 9.04
COc1cc2c(c(OC)c1OC)-c1ccc(=O)c(OCc3cn(C4CC(n5cc(C)c(=O)[nH]c5=O)OC4CO)nn3)cc1C(NC(C)=O)CC2 (stereo not shown) : 6.22

With those in mind, consider the next compound.
Entry `C/C=C/COc1ccc2c(cc1=O)[C@@H](NC(C)=O)CCc1cc(OC)c(OC)c(OC)c1-2` — recorded IC50 = 2.66
